# System: HCC1395;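 note: growth inhibition of HCC1395 cells, read out by a cell viability assay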
# method_notes: cells
# Assay type: functional, cell-based
# applied_conditions: Homo sapiens
# Description: SANGER: Inhibition of human HCC1395 cell growth in a cell viability assay.
pIC50: −log10 of the molar value.
In this section we review reported pIC50 values for a set of compounds.

>  <structure_smiles_string>
OC[C@H](Cc1ccccc1)Nc1nc(Oc2ccc3c(c2)CCC3)nc2c1ncn2Cc1ccc(-c2ccccc2)cc1

>  <pIC50>
< 4.99

$$$$
>  <structure_smiles_string>
CC1=C(/C=C/C(C)=C/C=C/C(C)=C/C(=O)O)C(C)(C)CCC1

>  <pIC50>
< 5.00

$$$$
>  <structure_smiles_string>
CS(=O)(=O)N1CCN(Cc2cc3nc(-c4cccc5[nH]ncc45)nc(N4CCOCC4)c3s2)CC1

>  <pIC50>
< 5.40

$$$$
>  <structure_smiles_string>
O=C1NC(=O)c2c1c(-c1ccccc1Cl)cc1[nH]c3ccc(O)cc3c21

>  <pIC50>
< 5.70

$$$$
>  <structure_smiles_string>
COc1ccc(-c2cc3nccn3c(Nc3ncccc3C(N)=O)n2)cc1OC

>  <pIC50>
< 5.10

$$$$

* * *

# Tested on: NCI-H1666;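 note: growth inhibition of the cell line, read out with a cell viability assay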
# method_notes: cells
# Assay type: functional, cell-based
# applied_conditions: Homo sapiens
# Description: SANGER: Inhibition of human NCI-H1666 cell growth in a cell viability assay.

>  <structure_smiles_string>
CS(=O)(=O)N1CCN(Cc2cc3nc(-c4cccc5[nH]ncc45)nc(N4CCOCC4)c3s2)CC1

>  <IC50>
2.51 µM

$$$$
>  <structure_smiles_string>
CC1(C)CCC(c2ccc(Cl)cc2)=C(CN2CCN(c3ccc(C(=O)NS(=O)(=O)c4ccc(N[C@H](CCN5CCOCC5)CSc5ccccc5)c(S(=O)(=O)C(F)(F)F)c4)cc3)CC2)C1

>  <IC50>
> 2 µM

$$$$
>  <structure_smiles_string>
O=C1NC(=O)c2c1c(-c1ccccc1Cl)cc1[nH]c3ccc(O)cc3c21

>  <IC50>
> 2 µM

$$$$
>  <structure_smiles_string>
NC(=O)Nc1cc(-c2cccc(F)c2)sc1C(=O)N[C@H]1CCCNC1

>  <IC50>
> 2 µM

$$$$
>  <structure_smiles_string>
NC(=O)c1ccc(N(C(N)=O)c2c(F)cccc2F)nc1-c1ccc(F)cc1F

>  <IC50>
> 2 µM

$$$$

* * *

# System: DV-90;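 note: Read-out is a viability assay, with IC50 reflecting the drop in DV-90 cell growth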
# method_notes: cells
# Type: functional, cell-based
# applied_conditions: Homo sapiens
# Description: SANGER: Inhibition of human DV-90 cell growth in a cell viability assay.

>  <molecule>
CCCCCCCCCCCC1=C(O)C(=O)C=C(O)C1=O [EMBELIN]

>  <result_qualifier>
=

>  <IC50 (µM)>
29.9

$$$$
>  <molecule>
OC[C@H](Cc1ccccc1)Nc1nc(Oc2ccc3c(c2)CCC3)nc2c1ncn2Cc1ccc(-c2ccccc2)cc1

>  <result_qualifier>
>

>  <IC50 (µM)>
10.2

$$$$

* * *

# Tested on: NCI-H719;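 note: growth inhibition of the cultured cell line, read out with a viability assay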
# method_notes: cells
# Assay type: functional, cell-based, Homo sapiens
# applied_conditions: Homo sapiens, NCI-H719
# Description: SANGER: Inhibition of human NCI-H719 cell growth in a cell viability assay.
pIC50: −log10 of the molar value.

>  <structure_smiles_string>
C/C(=C\c1csc(C)n1)[C@@H]1C[C@@H]2O[C@]2(C)CCC[C@H](C)[C@H](O)[C@@H](C)C(=O)C(C)(C)[C@@H](O)CC(=O)O1

>  <pIC50>
< 7.49

$$$$
>  <structure_smiles_string>
CC(C)C[C@H](NC(=O)[C@H](Cc1ccccc1)NC(=O)c1cnccn1)B(O)O

>  <pIC50>
< 7.70

$$$$
>  <structure_smiles_string>
Nc1ccccc1NC(=O)c1ccc(CNC(=O)OCc2cccnc2)cc1

>  <pIC50>
5.93

$$$$
>  <structure_smiles_string>
Cc1ccc(NC(=O)c2ccc(CN3CCN(C)CC3)cc2)cc1Nc1nccc(-c2cccnc2)n1

>  <pIC50>
< 5.70

$$$$
>  <structure_smiles_string>
O=S(=O)(O)c1ccc2cc(/N=N/c3cc(S(=O)(=O)O)c4cccnc4c3O)ccc2c1

>  <pIC50>
< 4.80

$$$$
>  <structure_smiles_string>
COc1cc(N2CCC(N3CCN(C)CC3)CC2)ccc1Nc1ncc(Cl)c(Nc2ccccc2S(=O)(=O)C(C)C)n1

>  <pIC50>
< 5.70

$$$$
